Provenance of the data: patent US11878003B2

Test system: C2C12 myoblasts
assay_info: MTT assay, myoblast viability
Type: cell-based, mouse
recorded_conditions: Mus musculus, C2C12, 48 hours, read-out: IC50, MTT assessment
metric: pIC50
Here pIC50 is given on a logarithmic scale as minus log10 of the concentration in mol/L.

Query: Return value of pIC50 for input O=c1c2ccccc2[se]n1-c1ccccc1 , no commentary.
Reply: 4.65
